Assay protocol: chemical genetic growth profiling, strain panel (AID 1159580);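 note: tested at 20 µM; growth read once vehicle control cultures reached saturation at 30 °C; 1 = growth at the plate median or of vehicle wells; lower values mean less growth of the strain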
Condition: S. cerevisiae deletion strains, growth OD, locus YLR320W, strain mms22, active compounds read low
In all, about 5,500 compounds went through this assay and about 2,000 (36%) were called active. Not shown: some 18% with an inconclusive outcome. Some of the results follow.
Experimental readout: normalized growth
Just the number, please, no unit attached.

Looking up `COc1c(Cl)ccc(Cl)c1C(=O)O` , I found its normalized growth recorded as 0.974

Looking up `CNCCCN1c2ccccc2CCc2ccccc21` , I found its normalized growth recorded as 0.987

Looking up `NC(N)=O` , I found its normalized growth recorded as 1

Looking up `CN(C)C(=O)Nc1ccc(Cl)c(Cl)c1` , I found its normalized growth recorded as 0.98

Looking up `O=c1cc(-c2ccccc2)oc2c(O)c(O)ccc12` , I found its normalized growth recorded as 1.01

###

Assay protocol: chemical genetic growth profiling, strain panel (AID 1159580);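 note: tested at 20 µM; growth read once vehicle control cultures reached saturation at 30 °C; 1 = growth at the plate median or of vehicle wells; lower values mean less growth of the strain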
Condition: S. cerevisiae deletion strains, growth OD, locus YHR027C, strain rpn1, active compounds read low
Hit rate of the full screen: of about 5,500 compounds, about 2,000 (36%) were called active. Another 18% or so got no clear call; they are omitted. The list shows a part of the results.
Experimental readout: normalized growth
Just the number, please, no unit attached.

Looking up `Nc1cc(C(Cl)=C(Cl)Cl)c(S(N)(=O)=O)cc1S(N)(=O)=O` , I found its normalized growth recorded as 1.02

Looking up `COc1cc([C@@H]2c3cc4c(cc3[C@H](OC(C)=O)[C@H]3COC(=O)[C@@H]23)OCO4)cc(OC)c1OC` , I found its normalized growth recorded as 0.993

Looking up `O=C(O)CCCOc1ccc(Cl)cc1Cl` , I found its normalized growth recorded as 0.938

Looking up `CN(C)CCOC(=O)COc1ccc(Cl)cc1` , I found its normalized growth recorded as 0.96

Looking up C[C@]12C=CC(=O)C=C1CCC1C3C[C@@H](O)[C@](O)(C(=O)CO)[C@@]3(C)C[C@H](O)[C@@]12F (stereo partly specified) , I found its normalized growth recorded as 0.998

Looking up `CCOC(=O)[C@H](CCc1ccccc1)N[C@@H](C)C(=O)N1Cc2ccccc2C[C@H]1C(=O)O` , I found its normalized growth recorded as 1.01

Looking up `Nc1cc(-c2ccncc2)c[nH]c1=O` , I found its normalized growth recorded as 0.872

Looking up `COC(=O)CCCOc1ccc(Cl)cc1Cl` , I found its normalized growth recorded as 0.975

Looking up `O=c1cc(-c2ccccc2)oc2c(O)c(O)ccc12` , I found its normalized growth recorded as 0.983

Looking up `N#C/C(=C\c1cccc(O)c1)C(=O)O` , I found its normalized growth recorded as 0.984

Looking up `NC(N)=O` , I found its normalized growth recorded as 1.01

###

Assay protocol: chemical genetic growth profiling, strain panel (AID 1159580);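 note: tested at 20 µM; growth read once vehicle control cultures reached saturation at 30 °C; 1 = growth at the plate median or of vehicle wells; lower values mean less growth of the strain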
Condition: S. cerevisiae deletion strains, growth OD, locus YNL298W, strain CLA4, active compounds read low
About 2,000 (36%) of roughly 5,500 compounds were called active. Roughly 18% stayed inconclusive and do not appear here. This is one part of the list.
Experimental readout: normalized growth
Just the number, please, no unit attached.

Looking up CC(CN(C)C)CN1c2ccccc2Sc2ccccc21 (stereo not given) , I found its normalized growth recorded as 0.991

Looking up CC(CCC(=O)O)[C@H]1CCC2C3CC[C@@H]4C[C@H](O)CC[C@]4(C)C3CC[C@@]21C (stereo not given in full) , I found its normalized growth recorded as 0.978

Looking up C[C@]12C=CC(=O)C=C1CCC1C3C[C@@H](O)[C@](O)(C(=O)CO)[C@@]3(C)C[C@H](O)[C@@]12F (stereo not given in full) , I found its normalized growth recorded as 0.98

Looking up `c1ccc2c(c1)CN1CCCC1=N2` , I found its normalized growth recorded as 0.996

Looking up CC(CCC(=O)O)[C@H]1CCC2C3CC[C@@H]4C[C@H](O)CC[C@]4(C)C3C[C@H](O)[C@@]21C (stereo not given in full) , I found its normalized growth recorded as 0.98

Looking up CC(CN1c2ccccc2Sc2ccccc21)N(C)C (stereo not given) , I found its normalized growth recorded as 0.978

Looking up `C[C@H](N)[C@H](O)c1ccccc1` , I found its normalized growth recorded as 1

Looking up `O=C(Nc1ccccc1)Nc1ccccc1` , I found its normalized growth recorded as 1.02

Looking up `O=c1[nH]cnc2[nH]ncc12` , I found its normalized growth recorded as 1.01

Looking up C[C@@H]1O[C@@H](O[C@H]2C[C@@H](O)[C@]3(CO)C4C(CC[C@]3(O)C2)[C@@]2(O)CC[C@H](C3=CC(=O)OC3)[C@@]2(C)C[C@H]4O)[C@H](O)[C@H](O)[C@H]1O (stereo not given in full) , I found its normalized growth recorded as 0.996

Looking up `O=C(Nc1ccccc1)c1ccccc1O` , I found its normalized growth recorded as 0.971

Looking up `COc1c(Cl)ccc(Cl)c1C(=O)O` , I found its normalized growth recorded as 1.02

Looking up COC(=O)CCC(C)[C@H]1CCC2C3C(C[C@H](O)[C@@]21C)[C@@]1(C)CC[C@@H](O)C[C@H]1C[C@H]3O (stereo not given in full) , I found its normalized growth recorded as 0.993

Looking up CC[C@H](CCC(C)[C@H]1CCC2C3CCC4C[C@@H](O)CC[C@]4(C)C3CC[C@@]21C)C(C)C (stereo not given in full) , I found its normalized growth recorded as 1.02

Looking up CC(C)CCCC(C)C1CCC2C3CC[C@H]4CCCC[C@]4(C)C3CC[C@]12C (stereo not given in full) , I found its normalized growth recorded as 0.998
